Experiment: NCI Yeast Anticancer Drug Screen. Data for the bub3 strain (AID 167)
Settings: S. cerevisiae bub3 mutant strain, at 5.0 µM (retest, dose inferred, filed as 0.5), stronger effect = higher value
Method: Growth inhibition of yeast strains with defined genetic alterations is measured as a screen for potential anti-cancer activity. Selected strains with alterations in DNA damage repair or cell cycle control were exposed to compounds and growth inhibition was measured relative to vehicle treated controls. The strain used in this assay is bub3
Compounds without any hit were thinned out: in the full panel of roughly 79,000, 15% have a hit.
A collection of compounds and their measured growth inhibition
# output: bare number, implied unit %

compound: NC1CCCCC1N.O=S(=O)([O-])CCCN1CCN(CCO)CC1.O=S(=O)([O-])CCCN1CCN(CCO)CC1.[Pt+4]
endpoint.value: -24

growth inhibition measured on CCOP(=O)(C=C=C1CCC2[C@@H]3CCc4cc(OC)ccc4C3CC[C@]12C)OCC (stereo partly drawn) = 13

growth inhibition measured on CC1=C(C(=O)Nc2ccccc2)C(c2ccccc2F)C(C(=O)Nc2ccccc2)=C(C)N1 = -2

growth inhibition measured on COc1ccc(OC)c2c(C(=O)O)c(C(C)c3ccccc3)ccc12 (stereo not drawn) = -6

growth inhibition measured on CC(C)c1ccc(C(=O)OC2CCCCC2)cc1 = 1

growth inhibition measured on Cc1cc(/C=C/c2cccc[n+]2C)c(C)n1-c1ccccc1 = -8

growth inhibition measured on O=C(NCCN1CCN2Cc3[nH]c4ccccc4c3CC2C1)c1ccc(Cl)cc1 (stereo not drawn) = 26

###

assay: NCI Yeast Anticancer Drug Screen. Data for the mec2-1 strain (AID 157); details: S. cerevisiae mec2-1 strain, at 50.0 µM (retest, dose inferred, filed as 5.0)
About 79,000 compounds went through this panel and 15% of them were active in at least one assay; those are over-represented in the sample as a whole. The source made the active and inactive calls. No stated cut-off is given here; in the data, active means growth inhibition above about 70%; inactive means the rest.
// allowed return values: yes (1) for active, no (0) for inactive

Outcome? O=C(Nc1ccccc1)Oc1c(Cl)c(Cl)c(Cl)c(Cl)c1Cl
yes (1)

###

assay: NCI Yeast Anticancer Drug Screen. Data for the bub3 strain (AID 167); conditions: S. cerevisiae bub3 mutant strain, at 50.0 µM, stronger effect = higher value
This is part of a sample that, as a whole, favours compounds with a hit. Of some 79,000 tested, about 15% had one in any assay.
A collection of compounds and their measured growth inhibition
# output: bare number, implied unit %

compound: O=C(O)c1ccccc1Cc1ccc2c(c1)Cc1ccccc1-2
growth inhibition, %: 50.4
//
compound: CCC(=O)OCN1C(=O)C=CC1=O
growth inhibition, %: 99.3
//
compound: CNC(=O)N/N=C/c1ccc([N+](=O)[O-])o1
growth inhibition, %: 34
//
compound: O=c1cc(-c2ccccc2)[nH]c2ccc(N3CCCC3)cc12
growth inhibition, %: -8.65
//
compound: Cc1ccc(N=C=C(c2ccccc2)c2ccccc2)cc1
growth inhibition, %: 67.2
//
compound: O=C1CC(=S)NC(=S)N1
growth inhibition, %: -10.4
//
compound: O=C=Nc1ccccc1-c1ccc([N+](=O)[O-])cc1Cl
growth inhibition, %: 83.7
//
compound: CCOC(=O)/C=C(\C)OCC
growth inhibition, %: 38.9

growth inhibition measured on NC(=O)/C=C/C(=O)c1c(Cl)cccc1Cl = 88.3

growth inhibition measured on CN(C)c1cc2nc3ccccc3nc2cc1O = 94.5

growth inhibition measured on COc1cccc(C(=O)C(CN(C)C)CN(C)C)c1 = 71.2

growth inhibition measured on COc1ccc(C2COc3cc(O)c(O)cc3C2)cc1 (stereo not given) = 99.6

growth inhibition measured on COc1ccc(N=N/N=c2\sc3cc(OC)ccc3n2C)cc1 = -3.4

###

experiment: NCI Yeast Anticancer Drug Screen. Data for the bub3 strain (AID 167); conditions: S. cerevisiae bub3 mutant strain, at 50.0 µM
About 79,000 compounds went through this panel and 15% of them were active in at least one assay; those are over-represented in the sample as a whole. The source made the active and inactive calls. Cut-off read from the data, not from the text of the source: active = growth inhibition above about 70%; inactive = the rest.
// allowed return values: t for active, f for inactive

# example entries with known answers
mol: CCN(CC)CCOC(=O)c1ccc(N=Nc2cc(Cl)c(C)cc2O)cc1
discrete.label: t
//
mol: O=C(NNC(=O)c1cccc(C(=O)NNC(=O)c2ccc(Cl)c(Cl)c2)n1)c1ccc(Cl)c(Cl)c1
discrete.label: t
//
mol: COc1ccc([N+](=O)[O-])cc1[I+]c1cc([N+](=O)[O-])ccc1OC
discrete.label: t
//
mol: CCNCCNc1cc(O)c2c(c1O)C(=O)c1ccccc1C2=O
discrete.label: t
//
mol: Oc1c(Cl)cc(Br)cc1Cl
discrete.label: t

Outcome? Nc1nnc(-c2cc([N+](=O)[O-])cc([N+](=O)[O-])c2)o1
f

Outcome? O=C(C(=O)c1ccncc1)c1ccccc1
f

Outcome? NC(=S)N/N=C1/C(=O)c2cccc3cccc1c23
f

Outcome? O=S(=O)(Nc1ccnn1-c1ccccc1)c1ccc(N=Cc2c3ccccc3nc3cc(Cl)ccc23)cc1
f

Outcome? O=C(O)Cc1nc2ccccc2[nH]1
f

###

test: NCI Yeast Anticancer Drug Screen. Data for the cln2 rad14 strain (AID 165);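 note: 0% = growth equal to vehicle treated cultures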; conditions: S. cerevisiae cln2 rad14 strain, at 50.0 µM (retest, dose inferred, filed as 5.0)
About 79,000 compounds went through this panel and 15% of them were active in at least one assay; those are over-represented in the sample as a whole. Active and inactive are the calls of the source. No stated cut-off is given here; in the data, active means growth inhibition above about 70%; inactive means the rest.
// allowed return values: active, inactive

# example entries with known answers
compound: CC(C)CCCC(C)[C@H]1CCC(C2C[C@@H](O)[C@@H]3CC(O)[C@@H](O)C[C@]3(CO)C2=O)[C@]1(C)CCO (some centres undefined)
discrete.label: active
--
compound: CCOc1ncc(Cl)c(OCC)n1
discrete.label: inactive
--
compound: O=C(Nc1ccc(F)c([N+](=O)[O-])c1)NC(Cc1ccccc1)c1ccccc1 (centres undefined)
discrete.label: active
--
compound: COc1ccc(C(=O)Cc2nc3nnc(NC(=O)Nc4ccc(Cl)cc4)n3nc2CC(=O)c2ccc(OC)cc2)cc1
discrete.label: active
--
compound: COC1C=COC2(C)Oc3c(C)c(O)c4c(O)c(c(C5SCCS5)c(O)c4c3C2=O)NC(=O)C(C)=C/C=C\C(C)C2OC(C)(C)OC(C2C)C(C)C(OC(C)=O)C1C (centres undefined)
discrete.label: active

Outcome? C[N+](C)(C)CCC(=O)c1ccco1
active

Outcome? COc1ccc(Cc2ccc(N)cc2)cc1
active

Outcome? Cc1nc(N2N=C(c3ccc(Cl)cc3)CCC2=O)sc1[N+](=O)[O-]
inactive

###

experiment: NCI Yeast Anticancer Drug Screen. Data for the mlh1 rad18 strain (AID 175); settings: S. cerevisiae mlh1 rad18 strain growth inhibition; at 5.0 µM (retest, dose inferred, filed as 0.5); stronger effect = higher value
This is part of a sample that, as a whole, favours compounds with a hit. Of some 79,000 tested, about 15% had one in any assay.
measure.name: growth inhibition (%)
# output: bare number, implied unit %

Use these answered entries as a reference point.
compound: c1coc(C2=Nc3cccc4cccc(c34)N2)c1
growth inhibition (%): -13

compound: O=C(c1ccco1)N(C(=S)N1CCN(c2ccccn2)CC1)c1ccccc1
growth inhibition (%): -2

compound: C/C=C1\SC(=S)NC1=O
growth inhibition (%): 36

compound: CCOC(C)c1ccccc1 (stereo unspecified)
growth inhibition (%): 64

compound: COC(OC)(c1ccccc1)C(I)I
growth inhibition (%): 100

// below: growth inhibition requested for another compound
growth inhibition measured on Cc1ccc(S(=O)(=O)Oc2ccc3oc4c(CO)ccc(NCCN(C)C)c4c(=O)c3c2)cc1 = 3

###

experiment: NCI Yeast Anticancer Drug Screen. Data for the cln2 rad14 strain (AID 165);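 note: 0% = growth equal to vehicle treated cultures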; conditions: S. cerevisiae cln2 rad14 strain, at 5.0 µM (retest, dose inferred, filed as 0.5)
The panel holds about 79,000 compounds, 15% with a hit somewhere; the sample as a whole holds those more often. Activity calls are given as the source filed them. Cut-off read from the data, not from the text of the source: active = growth inhibition above about 70%; inactive = the rest.
// allowed return values: y (active), n (inactive)

# example entries with known answers
compound: CC(=O)c1cc(-c2ccccc2)nc2ccccc12
discrete.label: n

compound: CCCCNC(=S)NC1C2CC3CC(C2)CC1C3 (centres undefined)
discrete.label: n

compound: O=Nc1c(-c2cccc([N+](=O)[O-])c2)nc2cnccn12
discrete.label: n

compound: CC(C(O)c1ccccc1)C(O)(C(F)(F)F)C(F)(F)F (centres undefined)
discrete.label: n

compound: O=C1CC(c2ccccc2)C(=O)N2C(=O)CC(c3ccccc3)C(=O)N12 (centres undefined)
discrete.label: n

Outcome? CCC[CH2][Sn]([CH2]CCC)([O]C(=O)c1c(F)cccc1F)[O]C(=O)c1c(F)cccc1F
y

Outcome? CC1OC2CC(=O)OC2C2=C1C(=O)c1c(O)cccc1C2=O (centres undefined)
y

Outcome? CCOC(=O)CCc1ccc(OC)c(OC)c1
n

Outcome? CCCCN(C)C(=S)N/N=C(\C)c1ccccn1
y

Outcome? CC(NNC(=S)N(C)C1CCCCC1)c1cc2ccccc2cn1 (centres undefined)
y

Outcome? Oc1c(Br)cc(Cl)cc1C(c1cc(Cl)cc(Br)c1O)C(Cl)(Cl)Cl
n

Outcome? CCOc1c(Br)cc(Br)cc1/C=N/NS(=O)(=O)c1ccc(C)cc1
n

Outcome? c1ccc2c(c1)[nH]c1cc3ccncc3cc12
n

Outcome? CCOC(=N)CCCSSc1ccc(N=[N+]=[N-])cc1
n

Outcome? O=Nc1c(O)ccc2ccccc12.[Fe].[Na+]
n

Outcome? Nc1nccc(NCCCCCCNc2ccnc(N)n2)n1
n

Outcome? O=[N+]([O-])c1ccc(C2=CSc3ccccc3N2)cc1
n

Outcome? CCOC(=O)C(C(C)=O)C1=C(Cl)C(=O)c2ccccc2C1=O (centres undefined)
y

Outcome? O=[N+]([O-])C1C(c2ccccc2)CC=CC1N1CCCC1 (centres undefined)
n

Outcome? CC1=C(C(=O)Nc2ccccc2)C(c2ccccc2F)C(C(=O)Nc2ccccc2)=C(C)N1
n

Outcome? CC(C)N(CN1C(=O)N/C(=C/c2cccc(/C=C3/NC(=O)N(CN(C(C)C)C(C)C)C3=O)c2)C1=O)C(C)C
n

Outcome? CC1=C(C(=O)Nc2cc(O)ccc2O)C(c2cccc([N+](=O)[O-])c2)C(C(=O)Nc2cc(O)ccc2O)=C(C)N1
n

Outcome? CCCCCC(=O)/C=C/c1ccc(C)cc1
n

Outcome? COC(=O)c1c(C)cccc1C(=O)c1ccc(C)cc1C
n

Outcome? CCC/C(=N\NC(=S)N1CCCCCC1)c1ccccn1
n

Outcome? Cc1ccc(I)c(C(C)(C)O)c1
n

Taken from PubChem BioAssay (NCI).
